# TARGET UNDER TEST: DNA polymerase I, thermostable (Thermus aquaticus)
# Sequence (P19821 whole entry): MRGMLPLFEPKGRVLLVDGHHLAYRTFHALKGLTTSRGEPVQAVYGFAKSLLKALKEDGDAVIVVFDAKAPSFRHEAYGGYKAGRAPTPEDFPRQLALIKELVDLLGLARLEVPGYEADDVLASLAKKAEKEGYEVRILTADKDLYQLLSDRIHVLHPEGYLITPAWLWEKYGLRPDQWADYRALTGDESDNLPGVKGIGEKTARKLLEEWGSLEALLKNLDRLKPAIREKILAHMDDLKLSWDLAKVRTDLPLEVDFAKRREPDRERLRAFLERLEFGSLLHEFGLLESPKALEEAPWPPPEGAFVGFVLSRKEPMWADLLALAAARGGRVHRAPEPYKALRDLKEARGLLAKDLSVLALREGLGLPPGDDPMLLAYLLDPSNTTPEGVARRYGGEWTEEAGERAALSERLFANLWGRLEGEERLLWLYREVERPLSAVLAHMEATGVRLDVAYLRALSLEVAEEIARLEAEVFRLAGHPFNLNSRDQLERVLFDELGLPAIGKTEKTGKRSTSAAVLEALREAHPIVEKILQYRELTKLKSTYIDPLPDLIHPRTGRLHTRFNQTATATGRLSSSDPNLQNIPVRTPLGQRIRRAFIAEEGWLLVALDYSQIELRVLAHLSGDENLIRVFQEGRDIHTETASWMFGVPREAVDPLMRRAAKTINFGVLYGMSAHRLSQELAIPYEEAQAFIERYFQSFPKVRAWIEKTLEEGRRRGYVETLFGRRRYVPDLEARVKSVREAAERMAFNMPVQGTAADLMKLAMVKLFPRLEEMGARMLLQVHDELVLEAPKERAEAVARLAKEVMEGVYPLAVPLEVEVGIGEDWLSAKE
RECORDED ENDPOINT: IC50

* COc1ccc2ccc3c([nH]c4c5ccccc5nc(NCCN(C)C)c34)c2c1 | > 10 µM
